Hello, the source for this data is patent US8592383B2, in case you need it.

Assayed target: hCRTH2 (Homo sapiens, UniProt Q9Y5Y4)
Sequence (Q9Y5Y4 1-395): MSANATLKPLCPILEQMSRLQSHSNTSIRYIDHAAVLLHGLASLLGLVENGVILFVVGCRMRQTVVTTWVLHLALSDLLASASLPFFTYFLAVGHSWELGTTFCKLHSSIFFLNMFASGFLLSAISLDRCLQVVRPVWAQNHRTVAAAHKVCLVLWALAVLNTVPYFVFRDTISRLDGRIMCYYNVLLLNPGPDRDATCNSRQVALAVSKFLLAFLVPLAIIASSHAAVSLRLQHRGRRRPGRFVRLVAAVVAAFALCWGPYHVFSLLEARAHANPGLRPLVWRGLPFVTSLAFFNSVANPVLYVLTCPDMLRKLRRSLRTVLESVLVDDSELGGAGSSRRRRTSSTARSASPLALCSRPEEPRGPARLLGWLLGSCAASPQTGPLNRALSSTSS
Parameters: expressed in transfected cells; host or cells: HEK (human embryonic kidney) cells expressing hCRTH2
Condition info: Radioligand Binding Assay B; 0.7 nM [3H]PGD2, HEK-hCRTH2 membranes
pKi: −log10 of the molar value.
Readout label: pKi

compound="O=C(O)CCC(=O)N(C1CC1)C1c2ccccc2N(C(=O)c2ccsc2)C2CCCC21 (racemic) [14E]" test_value=8.00
compound="O=C(O)CCC(=O)N(C1CC1)C1c2ccccc2N(C(=O)c2ccc(Cl)cc2)C2CCCC21 (racemic) [14K]" test_value=7.74
compound="O=C(O)CCC(=O)N(C1CC1)[C@@H]1c2ccc(F)cc2N(C(=O)OCc2ccccc2)[C@@H]2CCC[C@@H]21 (racemic)" test_value=8.57
compound="CC(CC(=O)N(C1CC1)C1c2ccccc2N(C(=O)OCc2ccccc2)C2CCCC21)C(=O)O (racemic)" test_value=6.29
compound="COC(=O)CCC(=O)N(C1CC1)C1c2ccccc2N(C(=O)c2ccc(Cl)cc2)C2CCCC21 (racemic) [14P]" test_value=6.38
compound="O=C(O)CCC(=O)N(C1CC1)C1c2ccccc2N(C(=O)Oc2ccccc2)C2CCCC21 (racemic) [21K]" test_value=6.04

A. O=C(O)CCC(=O)N(C1CC1)C1c2ccccc2N(C(=O)OCc2ccc(Cl)cc2)C2CCCC21 (racemic) [21A]
B. COC(=O)CCC(=O)N(C1CC1)C1c2ccc(F)cc2N(C(=O)c2ccccc2)C2CCCC21 (racemic) [16C]
Hi there! Just curious which has the higher pKi between A and B . Pick one and reply with its label.
A

---

Assayed target: hCRTH2 (Homo sapiens)
Design: expressed in transfected cells; host or cells: HEK (human embryonic kidney) cells expressing hCRTH2
Condition info: Radioligand Binding Assay B; Table B, rated A-D
Some compounds, each annotated with its measured Ki.

Past entries and their recorded results:
compound="COC(=O)CCC(=O)N(C1CC1)C1c2ccc(F)cc2N(C(=O)c2ccc(Oc3ccccc3)cc2)C2CCCC21 (racemic) [16B]" test_value="5.1 to 20 nM"
compound="COC(=O)CCC(=O)N(C1CC1)C1c2ccc(F)cc2N(C(=O)c2cccnc2)C2CCCC21 (racemic) [16A]" test_value="201 to 7500 nM"

Dear colleague, please send me the reported Ki for COC(=O)CCC(=O)N(C1CC1)C1c2ccccc2N(C(=O)c2ccc(Cl)cc2)C2CCCC21 (racemic) [14P] when you can.
201 to 7500 nM

Dear colleague, please send me the reported Ki for CN(C(=O)/C=C/C(=O)O)C1c2ccccc2N(C(=O)c2ccc(OC(F)(F)F)cc2)C2CCCC12 (racemic) [17Q] when you can.
201 to 7500 nM

Dear colleague, please send me the reported Ki for CCN(C(=O)CCC(=O)O)C1c2ccccc2N(C(=O)c2ccccc2)C2CCCC12 (racemic) [13D] when you can.
5.1 to 20 nM

Dear colleague, please send me the reported Ki for O=C(O)CCC(=O)N(C1CC1)C1c2ccccc2N(S(=O)(=O)c2ccc(OC(F)(F)F)cc2)C2CCCC12 (racemic) [24D] when you can.
20.1 to 200 nM

Dear colleague, please send me the reported Ki for CC(C)OC(=O)N1c2ccccc2C(N(C(=O)CCC(=O)O)C2CC2)C2CCCC21 (racemic) [compound 21] when you can.
20.1 to 200 nM
